- target-of-assay: Glycogen synthase kinase-3 beta (Homo sapiens)
- assay-summary: blockers of GSK3B enzyme activity – biochemical, cell-free homogeneous, HTS, primary screen (AID 2097);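 further: 0% = median DMSO wells and -100% = median GW8510 positive control wells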
- experimental-parameters: GST-GSK3beta kinase, ADP-Glo luminescence, 60 min; at 10 µM; hits give low values
In all, about 300,000 compounds went through this assay and about 120 (0.04%) were called active. The full list was thinned out, with actives kept by preference.
property-measured: activity score (negative = inhibition) (%)
Number in %, nothing else.

Answered examples (4):
Result for CCOC(OCC)c1ccc(/C=C\c2nccc(N)n2)cc1 , tested on Glycogen synthase kinase-3 beta (Homo sapiens), activity score (negative = inhibition): -5.66

Result for O=C(NCc1ccco1)/C(=C\c1cccc([N+](=O)[O-])c1)NC(=O)c1ccco1 , tested on Glycogen synthase kinase-3 beta (Homo sapiens), activity score (negative = inhibition): -2.64

Result for O=C(Cc1ccccc1)NCC1OCCc2ccccc21 (centres undefined) , tested on Glycogen synthase kinase-3 beta (Homo sapiens), activity score (negative = inhibition): 1.24

Result for CC(=O)N1CCN(S(=O)(=O)c2cccc(C(=O)NC3CCC(C)CC3)c2)CC1 (centres undefined) , tested on Glycogen synthase kinase-3 beta (Homo sapiens), activity score (negative = inhibition): -4.6

Now examine the next entry.
Result for COc1ccc2c(c1OC)C(=O)N(c1ccc(O)cc1)C2 , tested on Glycogen synthase kinase-3 beta (Homo sapiens), activity score (negative = inhibition): -1.79

Source: PubChem BioAssay AID2097
